- TARGET_ENTITY: limbic D-2 (dopamine receptor) (Rattus norvegicus)
- Sequence (P61169 whole entry): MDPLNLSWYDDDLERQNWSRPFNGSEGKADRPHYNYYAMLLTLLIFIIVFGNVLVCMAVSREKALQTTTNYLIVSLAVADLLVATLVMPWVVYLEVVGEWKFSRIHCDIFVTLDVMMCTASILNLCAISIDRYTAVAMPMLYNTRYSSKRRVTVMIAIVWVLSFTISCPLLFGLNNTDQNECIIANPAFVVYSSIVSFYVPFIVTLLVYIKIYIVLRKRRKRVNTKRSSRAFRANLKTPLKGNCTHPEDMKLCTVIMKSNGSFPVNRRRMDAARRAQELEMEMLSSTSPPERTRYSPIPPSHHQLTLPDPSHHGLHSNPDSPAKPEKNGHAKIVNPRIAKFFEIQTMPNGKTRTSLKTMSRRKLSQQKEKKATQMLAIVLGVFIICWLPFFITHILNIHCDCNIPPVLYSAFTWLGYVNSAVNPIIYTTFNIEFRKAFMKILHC
- PROTOCOL_DESCRIPTION: Limbic D-2 binding (3H-spiroperidol, homogenized limbic brain tissue)
- TEST_CONDITIONS: 95% confidence interval in brackets, read-out: Limbic D-2 inhibition constant (Ki)
pKi: −log10 of the molar value.
List of pKi values.
MEASURE_NAME: pKi

structure_smiles=Fc1ccc2[nH]c3c(c2c1)CN(CCc1ccccn1)CC3 reported_value=7.59
structure_smiles=Clc1ccc2[nH]c3c(c2c1)CN(CCCCc1ccncc1)CC3 reported_value=6.97
structure_smiles=Fc1ccc2[nH]c3c(c2c1)CN(CCCc1cccnc1)CC3 reported_value=6.40
structure_smiles=Fc1ccc2[nH]c3c(c2c1)CN(CCCCc1ccncc1)CC3 reported_value=6.84
structure_smiles=Fc1ccc2[nH]c3c(c2c1)CN(CCc1ccc2ccccc2n1)CC3 reported_value=6.73
structure_smiles=Clc1ccc2[nH]c3c(c2c1)CN(CCCc1ccccn1)CC3 reported_value=6.90
structure_smiles=Clc1ccc2[nH]c3c(c2c1)CN(CCc1ccc2ccccc2n1)CC3 reported_value=7.09
